Hello, the source for this data is patent US11459315B2, in case you need it.

Target: UniProt Q15910
Sequence (Q15910 whole entry): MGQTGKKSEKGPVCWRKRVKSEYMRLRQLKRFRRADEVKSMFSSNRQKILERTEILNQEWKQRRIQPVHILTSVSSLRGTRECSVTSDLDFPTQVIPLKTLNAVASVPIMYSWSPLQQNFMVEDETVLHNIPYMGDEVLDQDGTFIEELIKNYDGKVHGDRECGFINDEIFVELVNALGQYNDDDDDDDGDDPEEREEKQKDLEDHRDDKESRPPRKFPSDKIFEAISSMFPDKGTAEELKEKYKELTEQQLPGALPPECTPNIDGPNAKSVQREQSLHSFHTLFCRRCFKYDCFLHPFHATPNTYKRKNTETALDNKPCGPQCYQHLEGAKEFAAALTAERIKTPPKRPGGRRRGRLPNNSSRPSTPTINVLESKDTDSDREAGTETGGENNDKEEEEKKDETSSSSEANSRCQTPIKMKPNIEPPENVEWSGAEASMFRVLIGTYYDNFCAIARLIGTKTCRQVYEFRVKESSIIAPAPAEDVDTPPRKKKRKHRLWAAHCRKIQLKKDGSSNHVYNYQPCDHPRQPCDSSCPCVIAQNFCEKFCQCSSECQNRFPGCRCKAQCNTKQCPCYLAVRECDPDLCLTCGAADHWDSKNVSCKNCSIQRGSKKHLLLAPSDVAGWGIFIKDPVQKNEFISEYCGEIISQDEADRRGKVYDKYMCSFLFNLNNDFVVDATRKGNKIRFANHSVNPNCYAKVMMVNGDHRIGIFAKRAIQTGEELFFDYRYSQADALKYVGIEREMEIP
Sequence (O75530 whole entry partner): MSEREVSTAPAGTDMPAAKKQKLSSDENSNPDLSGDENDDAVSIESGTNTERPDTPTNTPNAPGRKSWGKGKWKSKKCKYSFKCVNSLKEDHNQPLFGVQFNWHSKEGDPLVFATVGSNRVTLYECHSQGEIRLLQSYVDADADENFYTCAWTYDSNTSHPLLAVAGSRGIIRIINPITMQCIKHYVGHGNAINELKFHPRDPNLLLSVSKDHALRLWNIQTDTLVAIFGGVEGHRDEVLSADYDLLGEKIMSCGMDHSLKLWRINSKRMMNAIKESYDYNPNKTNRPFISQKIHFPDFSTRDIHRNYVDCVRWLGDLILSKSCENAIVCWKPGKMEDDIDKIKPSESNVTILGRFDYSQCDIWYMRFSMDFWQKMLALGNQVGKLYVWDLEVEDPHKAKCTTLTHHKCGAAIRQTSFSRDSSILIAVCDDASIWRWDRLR
Sequence (Q15022 whole entry partner): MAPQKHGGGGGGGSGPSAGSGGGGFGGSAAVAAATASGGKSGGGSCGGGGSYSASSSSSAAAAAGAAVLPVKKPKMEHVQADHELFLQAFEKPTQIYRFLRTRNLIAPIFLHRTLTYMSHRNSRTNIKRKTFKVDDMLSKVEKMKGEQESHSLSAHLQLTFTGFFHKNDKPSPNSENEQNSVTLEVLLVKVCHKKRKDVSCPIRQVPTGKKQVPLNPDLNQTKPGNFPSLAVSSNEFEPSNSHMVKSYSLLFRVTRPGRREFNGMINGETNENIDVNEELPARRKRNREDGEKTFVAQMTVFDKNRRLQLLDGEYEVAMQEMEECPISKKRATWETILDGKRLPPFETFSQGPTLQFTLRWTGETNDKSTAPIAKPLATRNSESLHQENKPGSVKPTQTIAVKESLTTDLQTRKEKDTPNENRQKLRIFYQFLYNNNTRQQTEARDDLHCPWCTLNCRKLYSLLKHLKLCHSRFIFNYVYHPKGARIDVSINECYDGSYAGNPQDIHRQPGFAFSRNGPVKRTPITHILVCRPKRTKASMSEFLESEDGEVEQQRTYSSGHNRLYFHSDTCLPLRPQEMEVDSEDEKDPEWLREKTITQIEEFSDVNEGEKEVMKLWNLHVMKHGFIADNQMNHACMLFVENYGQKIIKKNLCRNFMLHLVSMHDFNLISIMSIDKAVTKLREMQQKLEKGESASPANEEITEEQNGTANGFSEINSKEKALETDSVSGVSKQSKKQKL
Sequence (Q09028 whole entry partner): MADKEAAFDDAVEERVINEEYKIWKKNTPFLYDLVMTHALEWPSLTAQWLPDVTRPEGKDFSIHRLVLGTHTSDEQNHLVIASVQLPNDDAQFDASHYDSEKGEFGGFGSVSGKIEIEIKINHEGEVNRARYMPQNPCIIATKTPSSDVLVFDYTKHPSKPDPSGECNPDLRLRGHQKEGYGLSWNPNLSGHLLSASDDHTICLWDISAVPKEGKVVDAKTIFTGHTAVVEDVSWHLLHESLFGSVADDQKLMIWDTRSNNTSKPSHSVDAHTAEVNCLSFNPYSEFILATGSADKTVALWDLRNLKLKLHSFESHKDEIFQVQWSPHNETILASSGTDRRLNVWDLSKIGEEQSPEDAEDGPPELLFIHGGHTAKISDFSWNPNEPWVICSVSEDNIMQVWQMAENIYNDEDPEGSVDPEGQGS
Sequence (Q6ZN18 whole entry partner): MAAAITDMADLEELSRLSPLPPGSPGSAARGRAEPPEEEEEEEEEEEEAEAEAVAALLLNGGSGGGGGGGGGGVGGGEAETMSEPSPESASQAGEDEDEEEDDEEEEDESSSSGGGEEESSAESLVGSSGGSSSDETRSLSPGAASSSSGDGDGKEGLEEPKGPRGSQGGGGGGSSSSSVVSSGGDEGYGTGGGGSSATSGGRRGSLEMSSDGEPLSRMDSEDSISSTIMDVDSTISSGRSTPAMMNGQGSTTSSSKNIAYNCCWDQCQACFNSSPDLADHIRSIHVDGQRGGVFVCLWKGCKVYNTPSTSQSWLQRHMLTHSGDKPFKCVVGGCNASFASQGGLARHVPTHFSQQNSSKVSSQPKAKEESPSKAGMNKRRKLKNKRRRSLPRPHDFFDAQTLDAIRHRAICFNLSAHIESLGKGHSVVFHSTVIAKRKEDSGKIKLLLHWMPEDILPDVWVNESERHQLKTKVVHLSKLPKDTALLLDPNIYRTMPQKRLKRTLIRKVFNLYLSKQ
Experiment: EZH2 biochemical assay (IC50), 3H-SAM incorporation into biotinylated H3 peptide
Conditions: 30 pM PRC2 containing wt EZH2; 3-5 h pre-incubation; read-out: EZH2 (IC50)
pIC50: −log10 of the molar value.
For each of the compounds below, state its pIC50.

Provide measured pIC50 on UniProt Q15910 for CSc1cc(C)[nH]c(=O)c1CNC(=O)c1c(C)n([C@H](C)C2CCC(N3CC(OC4CC4)C3)CC2)c2ccccc12 (stereo partly drawn) [Example 100] please.
> 9.30

Provide measured pIC50 on UniProt Q15910 for CSc1cc(C)[nH]c(=O)c1CNC(=O)c1c(C)n([C@H](C)C2CCC(NC3COC3)CC2)c2ccccc12 (single isomer, unassigned) [2 (isomer 2)] please.
> 9.30

Provide measured pIC50 on UniProt Q15910 for CO[C@@H]1CN(C2CCC([C@@H](C)n3c(C)c(C(=O)NCc4c(SC)cc(C)[nH]c4=O)c4cccnc43)CC2)C[C@H]1F (single isomer, unassigned) [104 (isomer 1)] please.
8.30 to 9.30

Provide measured pIC50 on UniProt Q15910 for CCCC(=O)OC1CCC([C@@H](C)n2c(C)c(C(=O)NCc3c(SC)cc(C)[nH]c3=O)c3ccccc32)CC1 (single isomer, unassigned) [143 (isomer 1)] please.
> 9.30

Provide measured pIC50 on UniProt Q15910 for CSc1cc(C)[nH]c(=O)c1CNC(=O)c1c(C)n([C@H](C)C2CCC(N3CC(OC(F)F)C3)CC2)c2c(F)cccc12 (single isomer, unassigned) [121 (isomer 2)] please.
8.30 to 9.30

Provide measured pIC50 on UniProt Q15910 for CSc1cc(C)[nH]c(=O)c1CNC(=O)c1c(C)n([C@H](C)C2CCC(NC3COC3)CC2)c2ncccc12 (single isomer, unassigned) [62 (isomer 1)] please.
> 9.30

Provide measured pIC50 on UniProt Q15910 for CSc1cc(C)[nH]c(=O)c1CNC(=O)c1c(C)n([C@H](C)C2CCC(N3CC(OC(F)(F)F)C3)CC2)c2ncncc12 (single isomer, unassigned) [123 (isomer 1)] please.
> 9.30

Provide measured pIC50 on UniProt Q15910 for CSc1cc(C)[nH]c(=O)c1CNC(=O)c1c(C)n([C@H](C)CO)c2ccccc12 [Example 31] please.
< 8.30

Provide measured pIC50 on UniProt Q15910 for CSc1cc(C)[nH]c(=O)c1CNC(=O)c1c(C)n([C@H](C)C2CCC(N3CC(OC4CC4)C3)CC2)c2c(F)cccc12 (single isomer, unassigned) [113 (isomer 1)] please.
> 9.30

Provide measured pIC50 on UniProt Q15910 for CSc1cc(C)[nH]c(=O)c1CNC(=O)c1c(C)n([C@H](C)C2CC(NC3COC3)C2)c2ccccc12 (stereo partly drawn) [Example 49] please.
8.30 to 9.30

Provide measured pIC50 on UniProt Q15910 for CSc1cc(C)[nH]c(=O)c1CNC(=O)c1c(C)n([C@H](C)C2CCC(N3CC(OC(F)F)C3)CC2)c2ccccc12 (single isomer, unassigned) [20 (isomer 2)] please.
> 9.30

Provide measured pIC50 on UniProt Q15910 for CSc1cc(C)[nH]c(=O)c1CNC(=O)c1c(C)n([C@H](C)C2CCC(N3CC(OC(F)F)C3)CC2)c2ccccc12 (single isomer, unassigned) [20 (isomer 1)] please.
> 9.30

Provide measured pIC50 on UniProt Q15910 for CSc1cc(C)[nH]c(=O)c1CNC(=O)c1c(C)n([C@H](C)C2CCC(NC3(C(F)(F)F)COC3)CC2)c2ncncc12 (single isomer, unassigned) [164 (isomer 2)] please.
8.30 to 9.30

Provide measured pIC50 on UniProt Q15910 for CSc1cc(C)[nH]c(=O)c1CNC(=O)c1c(C)n([C@H](C)C2CCC(N(C)C3(C)COC3)CC2)c2ccccc12 (single isomer, unassigned) [3 (isomer 1)] please.
> 9.30

Provide measured pIC50 on UniProt Q15910 for CSc1cc(C)[nH]c(=O)c1CNC(=O)c1c(C)n([C@H](C)C2CCC(N3CC(OC(F)F)C3)CC2)c2ncc(F)cc12 (stereo partly drawn) [Example 122] please.
> 9.30

Provide measured pIC50 on UniProt Q15910 for CSc1cc(C)[nH]c(=O)c1CNC(=O)c1c(C)n([C@H](C)C2CCN(C(=O)CO)CC2)c2ccccc12 [Example 135] please.
> 9.30

Provide measured pIC50 on UniProt Q15910 for CSc1cc(C)[nH]c(=O)c1CNC(=O)c1c(C)n([C@@H](C)c2cnc(C)nc2)c2ccccc12 [Example 34] please.
< 8.30

Provide measured pIC50 on UniProt Q15910 for CSc1cc(C)[nH]c(=O)c1CNC(=O)c1c(C)n([C@H](C)C2CCC(OC(=O)C(C)C)CC2)c2ccccc12 (single isomer, unassigned) [144 (isomer 2)] please.
> 9.30

Provide measured pIC50 on UniProt Q15910 for CC[C@@H](C1CCC(N2CC(OC(F)F)C2)CC1)n1c(C)c(C(=O)NCc2c(SC)cc(C)[nH]c2=O)c2cccnc21 (stereo partly drawn) [Example 117] please.
8.30 to 9.30

Provide measured pIC50 on UniProt Q15910 for CSc1cc(C)[nH]c(=O)c1CNC(=O)c1c(C)n([C@H](C)C2CCC(OC(C)=O)CC2)c2ccccc12 (single isomer, unassigned) [134 (isomer 1)] please.
> 9.30

Provide measured pIC50 on UniProt Q15910 for COC1CN(C2CCC([C@@H](C)n3c(C)c(C(=O)NCc4c(SCF)cc(C)[nH]c4=O)c4ccccc43)CC2)C1 (stereo partly drawn) [Example 93] please.
> 9.30

Provide measured pIC50 on UniProt Q15910 for CSc1cc(C)[nH]c(=O)c1CNC(=O)c1c(C)n([C@H](C)C2CCC(N3CC(F)(C4CC4)C3)CC2)c2ncccc12 (stereo partly drawn) [Example 157] please.
> 9.30

Provide measured pIC50 on UniProt Q15910 for CSc1cc(C)[nH]c(=O)c1CNC(=O)c1c(C)n([C@H](C)C2CCC(NCC(F)(F)F)CC2)c2ncncc12 (stereo partly drawn) [Example 89] please.
> 9.30

Provide measured pIC50 on UniProt Q15910 for CSc1cc(C)[nH]c(=O)c1CNC(=O)c1c(C)n([C@H](C)C23CC(N(C)C4COC4)(C2)C3)c2ccccc12 [Example 9] please.
> 9.30
